- test-protocol: Osmolality of sugar and sugar alcohol solutions (osmometer)
- Type: physicochemical
- measurement-parameters: 500 mM in water
The threshold is inclusive: Osmolality of solution of exactly 500 mOsm/kg counts as Y; values below receive N.

Qu. # bool: Osmolality of solution of OC[C@@H](O)[C@@H](O)[C@H](O)[C@@H](O)CO >= 500 mOsm/kg
Ans. Y

Qu. Next entry: O=C(CO)[C@@H](O)[C@H](O)[C@@H](O)CO
Ans. N

Qu. Consider next the compound O=C(O)[C@]1(O)C[C@@H](O)[C@@H](O)[C@H](O)C1 in the same way.
Ans. N

Qu. Another compound to look at: O=C[C@H](O)[C@H](O)[C@H](O)CO
Ans. N

Qu. Same question for OC[C@@H](O)[C@@H](O[C@H]1O[C@H](CO)[C@@H](O)[C@H](O)[C@H]1O)[C@H](O)[C@@H](O)CO please.
Ans. Y

Qu. Another compound to look at: O=C[C@H](O)[C@@H](O)[C@H](O)[C@H](O)CO
Ans. Y

Qu. Then OCC(O)CO ?
Ans. Y
